As shown below, each of these sequences has a reported soluble fraction (log2) value.
Assay: soluble fraction after stress (log2 fold change); higher = more stays soluble; pooled small domains, quantitative proteomics
Details: stress: 50 degC
Respond numerically, and do not add a unit to the figure.

Observe how each entry below is paired with its result.
SEQUENCE	READOUT NUMBER
HMPSSAYGPYKNVFLSNSELTKLKNELPTSWEHYINRLSEYMRSTGRQYQSHAATILRWAATDRNS	-0.139
HMSFPFLMPNLEGLQLDQVRVILEENGLEIGQENYQPDSKFGPGTIINHQPSVDTVVQTGQKVNLQISGTD	0.112
HMGMVKLNEEYLEKVKKHRKELHITQLQISKKLGWSLSRYQRFESGFYKEIEDDAPKKIKEEFGIDYSLL	-0.976
HMHLIPRESTYEIDGRRFVVDSVNLDFGKVSLQDITFRNATGFPIFRSESIEFMRRLVEISEAQRIAEL	-0.00889
HMRLSAADLQSYLKGMDYPASRQDLIAHARGHNAPEEAVATLEQFSDRTYRSAADVSVEFGRE	0.25

Ask: Fill in: soluble fraction (log2) of HMTRTISKVAKELAINIETVRFYERRGLIEQPPKPELGYRHYPDETVNRIRFIKRAQELGFTLEEIANLLS is ___
Result: -1.75

Ask: Need soluble fraction (log2), item HMTETELYDEVNRLIGLHLSERDRMILIMRDRDEFEIDAIAARTGLSEGNIRLILSRARRTVREAYRNNI
Result: -3.74

Ask: I have this sequence here, HMAQNILPGQKNAIKSLATSAGFSQQELDSYLSQNYGKTLNNLSQKEGASLISGLQDGSIKKP , and I need its recorded soluble fraction (log2).
Result: 0.352

Ask: I am curious: what soluble fraction (log2) value has been reported for HMQVSDANQLTDVVKSIIKQYPVEVEKYKSGKKALFGFFMGKVMENLKGKSNPKILKNVLTEILD ?
Result: 0.108

Ask: Quick check: soluble fraction (log2) of HMREVGVPNLRGLTAEEAQIVLSNAGLNLRTEPIRRVHETITVGRIAEQDPMPDLTIRSQRSVTTWLSSGP ?
Result: 0.317

Ask: Fill in the blank: the reported soluble fraction (log2) of HMKHMTMYEAAKIAKEVGAPKLWLTHYSPSMTRPEEFMDDVRKIFPAAYAAKDGWTMELNFDEG is ____.
Result: -0.493

Ask: If you can, please state the reported soluble fraction (log2) value of HMEILPAYRDIKKEALLGNINAEFKYVNLLLEHNYIEQAFNIIEDMKTRVDDNPEFEELKSRVADAYLMY .
Result: -1.38

Ask: Item HMYIDLHEIWKSLTDEEQTVVKLLETEPAHVDTLIENSQIPASRILATLTLLEVRGIVKRLPGRMFSLAD has what recorded soluble fraction (log2)?
Result: -1.45

Ask: Return reported soluble fraction (log2); argument: HMVSGVMAQQAIAVLVQQEDKHAPLSDQALAERLQVQGIDISRRTVAKYRQLLQIPSAATRR
Result: -0.419

Ask: # soluble fraction (log2) lookup, item HMEEDPILVAQRFLNIFRQLHIFDQQRREEFNSMILALPPEIRGTFGVLPGGSVLQEYVDELEISKGMA
Result: -0.512

Ask: Consider the sequence shown here: HMVVYFGGPVMLERGIVLHTPDISTKGTINVSDDFALTAHKEILDNINKDTSSLQFKLAIGH What is its recorded soluble fraction (log2)?
Result: -0.895

Ask: GET /values?readout=soluble fraction (log2)&item= HMQQLAEQIPTDRPYISIAEAVVLFGISRDTIYRQIRKGNIPAVNLGERLTRISRIHIEAMFPKV
Result: -0.563
